inhibition overview
- Method: growth suppression of yeast trafficking mutant, preliminary HTS, modulators of trafficking downstream of Golgi apparatus project, 1536-format plate, OD 615 nm (AID 637); also: test concentration not given here
- Experimental Context: yeast transport mutant growth, absorbance 615 nm, 18 h; stronger effect = higher value

| Molecule | inhibition [%] |
| --- | --- |
| COc1ccc(-c2nn3c(-c4cccc(C)c4)nnc3s2)cc1OC | -4.13 |
| Cc1cc(C)c(NC2=NCC(=O)N2C2CCCCC2)c(C)c1 | -3.09 |
| CC1(C)CC(=O)C2=C(C1)Nc1nc(SCCN3CCOCC3)[nH]c(=O)c1C2c1cccs1 (stereo unspecified) | 24 |
| O=C(Nc1ccc(SC(F)F)cc1)c1ccc2nccnc2c1 | -2.54 |
| CN1CCN(C(=O)CN(Cc2ccc(Cl)cc2)S(C)(=O)=O)CC1 | 4.44 |
| COc1ccc(-c2nc(C)sc2CC(=O)O)cc1 | 1.31 |
| CCCCc1c(O)nc(SCC(=O)Nc2ccc3c(c2)CCC3)[nH]c1=O | -2.91 |
| Cc1cc(C)nc(N2CCC(C(=O)Nc3ccc4c(c3)CCC4)CC2)n1 | -2.67 |
| Cc1nn(-c2ccccc2)c2c1C(O)n1c(nc3ccccc31)S2 (stereo unspecified) | -0.79 |
| O=C(Cc1ccccc1)Nc1ccc(CN2CCOCC2)cc1 | -2.38 |
| O=C(NCC1CCCO1)c1cccc(N2CCCC2=O)c1 (stereo unspecified) | 1.9 |
